Sourced from patent US20250171459A1

Target: APOL1 (Homo sapiens)
Sequence (O14791 1-398 S342G/I384M): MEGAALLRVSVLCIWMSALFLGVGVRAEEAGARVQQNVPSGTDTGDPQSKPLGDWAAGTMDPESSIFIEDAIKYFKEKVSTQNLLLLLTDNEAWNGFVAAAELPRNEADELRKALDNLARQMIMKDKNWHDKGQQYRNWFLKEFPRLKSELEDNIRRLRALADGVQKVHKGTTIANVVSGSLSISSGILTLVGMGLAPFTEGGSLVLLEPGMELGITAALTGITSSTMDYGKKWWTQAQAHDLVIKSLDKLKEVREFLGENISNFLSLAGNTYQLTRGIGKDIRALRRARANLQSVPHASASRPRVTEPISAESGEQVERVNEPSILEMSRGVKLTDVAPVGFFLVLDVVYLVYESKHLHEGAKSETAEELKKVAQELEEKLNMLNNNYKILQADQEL
Experiment: MultiTox-Fluor Multiplex Cytotoxicity Assay in tet-inducible APOL1 T-REx-HEK293 cells (cell rescue, ratio of dead to live cells)
Conditions: tet-inducible transgenic APOL1 T-REx-HEK293 cell lines, 50 ng/mL tet, 24 hours; read-out: IP50 (i.e., IC50 for cell proliferation)
Assignment: determine reported IC50 for the given compounds.

Would you kindly share the measured IC50 for CCc1cc2c(s1)CCO[C@@]21CCN(C[C@H]2C[C@@H](NC(=O)CS(C)(=O)=O)C2)[C@@H](C)C1 [Compound 343] ?
< 100 nM

One more compound: C[C@H]1C[C@@]2(CCN1Cc1cn(C3CCOCC3)nn1)OC[C@](O)(C(F)F)c1cc(Cl)sc12 [Compound 841]
< 100 nM

And C[C@H]1C[C@@]2(CCN1CCC1CCOCC1)OCCc1cc(Cl)sc12 [Compound 673] ?
500 to 1000 nM

Item: COCCc1ncc(CN2CC[C@]3(C[C@@H]2C)OC[C@H](O)c2cc(Cl)sc23)cn1 [Compound 797]
100 to 500 nM
